Where do the numbers come from? From the supplement of paper PMC9112550.

System: Escherichia coli TOP10
TEST_DESCRIPTION: shrunken log2 fold change of peptide-encoding DNA abundance (4.5 h post-induction vs induction); higher = less antimicrobial activity (less host growth inhibition)
REPORTED_CONDITIONS: time post-induction: 4.5 h; library: site-saturation at positions 5, 18, 19, 20
Below is a list of entries, each paired with its recorded shrunken log2 fold change value.

The examples below pair each entry with its known result.
CHAIN: RRIRKRPPRLPRPRPRPHVVPRP
TESTED_ON: Escherichia coli TOP10
shrunken log2 fold change: -0.183
//
CHAIN: RRIRYRPPRLPRPRPRPWAGPRP
TESTED_ON: Escherichia coli TOP10
shrunken log2 fold change: -0.53
//
CHAIN: RRIRVRPPRLPRPRPRPWPMPRP
TESTED_ON: Escherichia coli TOP10
shrunken log2 fold change: 0.0297
//
CHAIN: RRIRPRPPRLPRPRPRPCTKPRP
TESTED_ON: Escherichia coli TOP10
shrunken log2 fold change: -0.244
//
CHAIN: RRIRKRPPRLPRPRPRPFQIPRP
TESTED_ON: Escherichia coli TOP10
shrunken log2 fold change: 0.0332
//
CHAIN: RRIRYRPPRLPRPRPRPHIPPRP
TESTED_ON: Escherichia coli TOP10
shrunken log2 fold change: -0.452

Query block: I have this sequence here, "RRIRQRPPRLPRPRPRPRIRPRP" , and I need its recorded shrunken log2 fold change.
Result block: 0.024

Query block: I have this sequence here, "RRIRYRPPRLPRPRPRPYMAPRP" , and I need its recorded shrunken log2 fold change.
Result block: -1.71

Query block: I have this sequence here, "RRIRLRPPRLPRPRPRPMPCPRP" , and I need its recorded shrunken log2 fold change.
Result block: -0.12

Query block: I have this sequence here, "RRIRHRPPRLPRPRPRPTEVPRP" , and I need its recorded shrunken log2 fold change.
Result block: -0.0182

Query block: I have this sequence here, "RRIRQRPPRLPRPRPRPTCMPRP" , and I need its recorded shrunken log2 fold change.
Result block: -0.163

Query block: I have this sequence here, "RRIRWRPPRLPRPRPRPHITPRP" , and I need its recorded shrunken log2 fold change.
Result block: -0.699

Query block: I have this sequence here, "RRIRTRPPRLPRPRPRPKCQPRP" , and I need its recorded shrunken log2 fold change.
Result block: -0.144

Query block: I have this sequence here, "RRIRERPPRLPRPRPRPSNQPRP" , and I need its recorded shrunken log2 fold change.
Result block: -0.841

Query block: I have this sequence here, "RRIRRRPPRLPRPRPRPVWDPRP" , and I need its recorded shrunken log2 fold change.
Result block: 0.246

---

Tested on: Escherichia coli TOP10;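 note: peptides expressed intracellularly from a pBAD plasmid library in pooled LB shake-flask culture, induced with 0.3% L-arabinose, DNA abundance read by NGS, three biological replicates, DESeq2 with apeglm shrinkage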
TEST_DESCRIPTION: shrunken log2 fold change of peptide-encoding DNA abundance (4.5 h post-induction vs induction); higher = less antimicrobial activity (less host growth inhibition)
REPORTED_CONDITIONS: time post-induction: 4.5 h; library: site-saturation at positions 5, 18, 19, 20
Entry flag: criterion met if shrunken log2 fold change reaches 0.09; criterion not met if it does not.

Study these solved cases before continuing.
CHAIN: RRIRMRPPRLPRPRPRPCIDPRP
CATEGORY: criterion met

CHAIN: RRIRVRPPRLPRPRPRPKNYPRP
CATEGORY: criterion not met

CHAIN: RRIRKRPPRLPRPRPRPNGAPRP
CATEGORY: criterion met

CHAIN: RRIRRRPPRLPRPRPRPELMPRP
CATEGORY: criterion not met

CHAIN: RRIRGRPPRLPRPRPRPDVCPRP
CATEGORY: criterion met

CHAIN: RRIRMRPPRLPRPRPRPVKIPRP
CATEGORY: criterion met

CHAIN: RRIRYRPPRLPRPRPRPHKLPRP
CATEGORY: criterion not met

CHAIN: RRIRVRPPRLPRPRPRPVINPRP
CATEGORY: criterion not met

CHAIN: RRIRIRPPRLPRPRPRPGHNPRP
CATEGORY: criterion not met

CHAIN: RRIRHRPPRLPRPRPRPGCVPRP
CATEGORY: criterion not met

Query block: Tell me whether shrunken log2 fold change is at least 0.09 here: "RRIRCRPPRLPRPRPRPHVEPRP"
Result block: criterion not met

Query block: Tell me whether shrunken log2 fold change is at least 0.09 here: "RRIRKRPPRLPRPRPRPMRGPRP"
Result block: criterion met

Query block: Tell me whether shrunken log2 fold change is at least 0.09 here: "RRIRKRPPRLPRPRPRPCLSPRP"
Result block: criterion not met

Query block: Tell me whether shrunken log2 fold change is at least 0.09 here: "RRIRTRPPRLPRPRPRPRCKPRP"
Result block: criterion not met

Query block: Tell me whether shrunken log2 fold change is at least 0.09 here: "RRIRERPPRLPRPRPRPRGVPRP"
Result block: criterion met

Query block: Tell me whether shrunken log2 fold change is at least 0.09 here: "RRIRNRPPRLPRPRPRPRDNPRP"
Result block: criterion met

Query block: Tell me whether shrunken log2 fold change is at least 0.09 here: "RRIRTRPPRLPRPRPRPHTYPRP"
Result block: criterion not met

Query block: Tell me whether shrunken log2 fold change is at least 0.09 here: "RRIRYRPPRLPRPRPRPCICPRP"
Result block: criterion not met

Query block: Tell me whether shrunken log2 fold change is at least 0.09 here: "RRIRFRPPRLPRPRPRPHTLPRP"
Result block: criterion not met

Query block: Tell me whether shrunken log2 fold change is at least 0.09 here: "RRIRIRPPRLPRPRPRPTNHPRP"
Result block: criterion not met

Query block: Tell me whether shrunken log2 fold change is at least 0.09 here: "RRIRERPPRLPRPRPRPECCPRP"
Result block: criterion not met

Query block: Tell me whether shrunken log2 fold change is at least 0.09 here: "RRIRTRPPRLPRPRPRPFMWPRP"
Result block: criterion not met

Query block: Tell me whether shrunken log2 fold change is at least 0.09 here: "RRIRWRPPRLPRPRPRPHPWPRP"
Result block: criterion not met

Query block: Tell me whether shrunken log2 fold change is at least 0.09 here: "RRIRLRPPRLPRPRPRPWQPPRP"
Result block: criterion not met
